The origin of these recorded values is patent US20240043427A1.

A collection of molecules and their measured IC50
# system: UniProt:P21589
# Sequence (P21589 27-574): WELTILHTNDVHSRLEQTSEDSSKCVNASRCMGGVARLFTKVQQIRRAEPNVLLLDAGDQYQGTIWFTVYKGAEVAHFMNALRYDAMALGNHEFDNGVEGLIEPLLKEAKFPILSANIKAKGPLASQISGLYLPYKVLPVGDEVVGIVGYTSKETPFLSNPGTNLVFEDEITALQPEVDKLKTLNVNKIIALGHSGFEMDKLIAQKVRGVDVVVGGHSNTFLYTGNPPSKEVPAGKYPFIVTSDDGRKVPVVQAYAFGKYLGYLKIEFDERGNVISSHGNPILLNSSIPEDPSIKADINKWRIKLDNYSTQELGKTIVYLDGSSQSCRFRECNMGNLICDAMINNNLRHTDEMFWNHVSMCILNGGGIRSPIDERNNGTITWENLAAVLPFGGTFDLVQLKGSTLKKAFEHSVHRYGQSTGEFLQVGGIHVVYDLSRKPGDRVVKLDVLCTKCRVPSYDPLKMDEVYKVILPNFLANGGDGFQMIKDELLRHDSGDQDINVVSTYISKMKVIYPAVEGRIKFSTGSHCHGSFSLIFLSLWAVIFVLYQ
# Format: biochemical
# conditionDescription: 1 mM NaH2PO4 in enzyme buffer, CD73 0.3 nM, AMP 15 uM

molecule: O=C1N(CC(F)(F)C(F)(F)F)c2cc([C@H]3C[C@@H]3c3cc(-c4c[nH]c(=O)[nH]c4=O)nn4ccnc34)ccc2C12CC2 (racemic)
system: UniProt:P21589
valueObserved: 1.79 nM

Per the record, Cc1nc2ccc([C@H]3C[C@@H]3c3cc(-c4c[nH]c(=O)[nH]c4=O)nn4c(F)cnc34)cc2s1 (racemic) has IC50 of 1.63 nM

Entry O=c1[nH]cc(-c2cc(N3CCC4CCC43)c3nccn3n2)c(=O)[nH]1 (stereo not drawn) — recorded IC50 = 51.7 nM
